Target: recombinant, N-terminally GST-tagged ATAD2 bromodomain amino acids 981-1108 (Homo sapiens, UniProt Q6PL18)
Construct: ATAD2 bromodomain amino acids 981-1108
Sequence (Q6PL18 981-1108): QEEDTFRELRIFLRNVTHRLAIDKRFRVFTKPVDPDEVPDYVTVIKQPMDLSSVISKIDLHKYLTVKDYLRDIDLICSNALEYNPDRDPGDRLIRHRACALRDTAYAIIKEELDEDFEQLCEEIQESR
Experiment: TR-FRET assay: disruption of the interaction between ATAD2 and acetylated Histone H4 (Ac-H4) peptide
Conditions: inhibition of ATAD2/Ac-H4 complex formation; 10 nM ATAD2, 50 nM Ac-H4 peptide
Consider the cut-off 400 nM. If the recorded IC50 is strictly smaller, the label is satisfied; if not, the label is not satisfied.

[[record]]
compound = "Cc1ccc([C@@H](C)NCc2ccc(-c3ccc(Cl)c(C(=O)N[C@@H](CNC4CCN(CC(C)C)CC4)Cc4ccc(C#N)cc4)c3)o2)cc1"
class = "satisfied"

[[record]]
compound = "Cc1ccc([C@@H](C)NCc2ccc(-c3ccc(Cl)c(C(=O)N[C@H](Cc4ccc(C#N)cc4)[C@@H](C)O)c3)o2)cc1"
class = "not satisfied"

[[record]]
compound = "CC(C)(NCc1ccc(-c2ccc(Cl)c(C(=O)N[C@@H](CN)Cc3ccc(C#N)cc3)c2)o1)c1ccc(C(F)(F)F)cc1"
class = "not satisfied"

[[record]]
compound = "Cc1ccc([C@@H](C)NCc2ccc(-c3ccc(Cl)c(C(=O)N[C@@H](CO)Cc4ccc(C#N)c(C)c4)c3)o2)cc1"
class = "not satisfied"

[[record]]
compound = "COC(=O)[C@@H](Cc1ccc(C#N)cc1)NC(=O)c1cc(-c2ccc(CN[C@H](C)c3ccc(C)cc3)o2)ccc1Cl"
class = "not satisfied"

[[record]]
compound = "Cc1ccc([C@@H](C)NCc2ccc(-c3ccc(Cl)c(C(=O)N[C@@H](CNC4CCN(C(=O)OC(C)(C)C)CC4)Cc4ccc(C#N)cc4)c3)o2)cc1"
class = "not satisfied"

[[record]]
compound = "Cc1ccc([C@@H](C)NCc2ccc(-c3ccc(Cl)c(C(=O)N[C@@H](CNC4CCN(C)CC4)Cc4ccc(C#N)cc4)c3)o2)cc1"
class = "satisfied"

[[record]]
compound = "Cc1ccc([C@@H](C)NCc2ccc(-c3ccc(Cl)c(C(=O)N[C@@H](CCN4CCN(C)CC4)Cc4ccc(C#N)cc4)c3)o2)cc1"
class = "satisfied"

[[record]]
compound = "Cc1ccc([C@@H](C)NCc2ccc(-c3ccc(Cl)c(C(=O)N[C@@H](CO)Cc4ccc(C(N)=O)cc4)c3)o2)cc1"
class = "not satisfied"

[[record]]
compound = "Cc1ccc([C@@H](C)NCc2ccc(-c3ccc(Cl)c(C(=O)N[C@@H](CC(=O)N(C)C)Cc4ccc(C#N)cc4)c3)o2)cc1"
class = "not satisfied"


Ask: Field: below-cutoff. Rule: recorded IC50 strictly less than 400 nM. Subject: Cc1ccc([C@@H](C)NCc2ccc(-c3ccc(Cl)c(C(=O)N[C@@H](CN[C@H]4CC[C@@H](N)CC4)Cc4ccc(C#N)cc4)c3)o2)cc1 (single isomer, unassigned) [Example 72]
Reply: satisfied

Ask: Report whether reported IC50 is lower than 400 nM (strictly) for `Cc1ccc([C@@H](C)NCc2ccc(-c3ccc(Cl)c(C(=O)N[C@@H](CNS(C)(=O)=O)Cc4ccc(C#N)cc4)c3)o2)cc1`
Reply: not satisfied

Ask: Dear colleague, could you confirm whether IC50 of `Cc1ccc([C@@H](C)NCc2ccc(-c3ccc(Cl)c(C(=O)N[C@H](Cc4ccc(C#N)cc4)c4ncn[nH]4)c3)o2)cc1` falls below 400 nM? Thanks.
Reply: not satisfied

Ask: Please state whether IC50 is below 400 nM for `CNC(=O)C[C@@H](Cc1ccc(C#N)cc1)NC(=O)c1cc(-c2ccc(CN[C@H](C)c3ccc(Cl)cc3)o2)ccc1Cl`
Reply: not satisfied

Ask: Determine if `CNC(=O)C[C@@H](Cc1ccc(C#N)cc1)NC(=O)c1cc(-c2ccc(CNC(C)(C)c3ccccc3)o2)ccc1Cl` shows IC50 strictly lower than 400 nM.
Reply: not satisfied

Ask: Does `Cc1ccc([C@@H](C)NCc2ccc(-c3cc(C(=O)N[C@@H](CO)Cc4ccc(C#N)cc4)c(Cl)cc3O)o2)cc1` have IC50 strictly under 400 nM?
Reply: satisfied

Ask: Determine whether this compound shows IC50 lower than 400 nM (ties excluded): `Cc1ccc([C@@H](C)NCc2ccc(-c3ccc(Cl)c(C(=O)N[C@@H](CCN4CCN[C@H](C)C4)Cc4ccc(C#N)cc4)c3)o2)cc1`
Reply: satisfied

Ask: Problem: For the compound `Cc1ccc([C@@H](C)NCc2ccc(-c3ccc(Cl)c(C(=O)N[C@@H](CCO)Cc4ccc(C#N)cc4)c3)o2)cc1` , is IC50 under 400 nM?
Reply: satisfied

Ask: Does this compound meet the criterion IC50 < 400 nM? `Cc1ccc([C@@H](C)NCc2ccc(-c3ccc(Cl)c(C(=O)N[C@@H](CNCc4ccccc4)Cc4ccc(C#N)cc4)c3)o2)cc1`
Reply: not satisfied

Ask: Is IC50 strictly under 400 nM for the entry `Cc1ccc([C@@H](C)NCc2ccc(-c3ccc(Cl)c(C(=O)N[C@@H](CCNCC4CCN(C)CC4)Cc4ccc(C#N)cc4)c3)o2)cc1` ?
Reply: satisfied

Ask: Problem: For the compound COc1cc(Cl)c(C(=O)N[C@@H](CN[C@H]2CC[C@@H](N)CC2)Cc2ccc(C#N)cc2)cc1-c1ccc(CN[C@H](C)c2ccc(C)cc2)o1 [Example 86] , is IC50 under 400 nM?
Reply: satisfied

Ask: Answer whether the compound `Cc1ccc([C@@H](C)NCc2ccc(-c3ccc(Cl)c(C(=O)N[C@@H](CO)Cc4ccc(C#N)cc4N)c3)o2)cc1` has IC50 strictly less than 400 nM
Reply: not satisfied

Ask: In plain terms, does `Cc1ccc([C@@H](C)NCc2ccc(-c3ccc(Cl)c(C(=O)N[C@H](Cc4ccc(C#N)cc4)[C@H](C)O)c3)o2)cc1` come in under 400 nM for IC50?
Reply: satisfied
